test system: Candida albicans; assay: MIC/MFC broth microdilution (CLSI); type: cell-based; conditions: Candida albicans SC5314
measure.name: MIC / MEC
Returns: string containing the numeric result and its unit.

molecule	system.name	MIC / MEC
O=P(O)(O)C(O)(Cn1ccnc1)P(=O)(O)O [ZOL, zoledronate]	Candida albicans	128 µg/mL

What is its MIC / MEC for Candida albicans? Entry: CCCCCCCCCCn1cc[n+](CC(O)(P(=O)(O)O)P(=O)(O)O)c1 [10-ZOL, Decyl-zoledronate]
4 µg/mL

What is its MIC / MEC for Candida albicans? Entry: CC[C@H](C)C[C@H](C)CCCCCCCCC(=O)N[C@H]1C[C@@H](O)[C@@H](NCCN)NC(=O)[C@@H]2[C@@H](O)CCN2C(=O)[C@H]([C@H](O)CCN)NC(=O)[C@H]([C@H](O)[C@@H](O)c2ccc(O)cc2)NC(=O)[C@@H]2C[C@@H](O)CN2C(=O)[C@H]([C@@H](C)O)NC1=O
0.13 µg/mL

What is its MIC / MEC for Candida albicans? Entry: C[C@@H]1[C@H](O)[C@@H](C)/C=C/C=C/C=C/C=C/C=C/C=C/C=C/[C@H](O[C@@H]2O[C@H](C)[C@@H](O)[C@H](N)[C@@H]2O)C[C@@H]2O[C@](O)(C[C@@H](O)C[C@@H](O)[C@H](O)CC[C@@H](O)C[C@@H](O)CC(=O)O[C@H]1C)C[C@H](O)[C@H]2C(=O)O
0.25 µg/mL

What is its MIC / MEC for Candida albicans? Entry: OC(Cn1cncn1)(Cn1cncn1)c1ccc(F)cc1F
0.5 µg/mL

What is its MIC / MEC for Candida albicans? Entry: Nc1nc(=O)[nH]cc1F
0.25 µg/mL

* * *

In this section we review reported antifungal MICc values for a set of molecules.
system: Trichophyton tonsurans; assay: checkerboard drug interaction (FICI, MICc); assay type: cell-based; settings: in combination with 10-ZOL;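 also: simplified diagonal checkerboard screen combining antifungals with FPPS inhibitors, with FICI calculated under the Loewe additivity model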
Could you respond with only the numeric value?

Given Nc1nc(=O)[nH]cc1F [5FC, 5-flucytosine] , state its recorded antifungal MICc.
64

Given C[C@@H](c1ncncc1F)[C@](O)(Cn1cncn1)c1ccc(F)cc1F [VOR] , state its recorded antifungal MICc.
0.063

Given CC[C@H](C)C[C@H](C)CCCCCCCCC(=O)N[C@H]1C[C@@H](O)[C@@H](NCCN)NC(=O)[C@@H]2[C@@H](O)CCN2C(=O)[C@H]([C@H](O)CCN)NC(=O)[C@H]([C@H](O)[C@@H](O)c2ccc(O)cc2)NC(=O)[C@@H]2C[C@@H](O)CN2C(=O)[C@H]([C@@H](C)O)NC1=O [CAS, caspofungin] , state its recorded antifungal MICc.
2

* * *

tested on: Aspergillus felis; experiment: checkerboard drug interaction (FICI, MICc); type: cell-based; conditions: in combination with 10-ZOL
measure.name: antifungal MICc
Could you respond with only the numeric value?

compound	antifungal MICc
CC(=O)N1CCN(c2ccc(OCC3COC(Cn4ccnc4)(c4ccc(Cl)cc4Cl)O3)cc2)CC1 (stereo not shown)	4
CC[C@H](C)C[C@H](C)CCCCCCCCC(=O)N[C@H]1C[C@@H](O)[C@@H](NCCN)NC(=O)[C@@H]2[C@@H](O)CCN2C(=O)[C@H]([C@H](O)CCN)NC(=O)[C@H]([C@H](O)[C@@H](O)c2ccc(O)cc2)NC(=O)[C@@H]2C[C@@H](O)CN2C(=O)[C@H]([C@@H](C)O)NC1=O	0.5
C[C@@H]1[C@H](O)[C@@H](C)/C=C/C=C/C=C/C=C/C=C/C=C/C=C/[C@H](O[C@@H]2O[C@H](C)[C@@H](O)[C@H](N)[C@@H]2O)C[C@@H]2O[C@](O)(C[C@@H](O)C[C@@H](O)[C@H](O)CC[C@@H](O)C[C@@H](O)CC(=O)O[C@H]1C)C[C@H](O)[C@H]2C(=O)O	2
OC(Cn1cncn1)(Cn1cncn1)c1ccc(F)cc1F	4

Given CCC(C)n1ncn(-c2ccc(N3CCN(c4ccc(OCC5COC(Cn6cncn6)(c6ccc(Cl)cc6Cl)O5)cc4)CC3)cc2)c1=O (stereo not shown) , state its recorded antifungal MICc.
0.5

Given C[C@@H](c1ncncc1F)[C@](O)(Cn1cncn1)c1ccc(F)cc1F , state its recorded antifungal MICc.
0.5

Given Nc1nc(=O)[nH]cc1F , state its recorded antifungal MICc.
256

Source listed as paper PMC12892976.
